system: M14 melanoma; assay: NCI tumour cell line growth inhibition, 48 h; in the data active = GI50 below about 0.43 µM; inactive = the rest
Select the correct class. Options are YES (active), NO (inactive) and nothing else.

Give the logged outcome of this assay for the following molecule: `Cc1nn2c(/C=C3/C(=O)Nc4cc(Cl)ccc43)c(-c3ccccc3)nc2s1`
NO

// next record `CN(C)c1nc2ccccc2c2c1c1c(n2Cc2ccccc2)-c2ccccc2C1=O`
NO

// next record O=C(c1ccccc1)c1c(NCC(O)CN2CCOCC2)n(Cc2ccccc2)c(=O)n(Cc2ccccc2)c1=O (stereo not drawn)
NO

// next record Cc1ccc(S(=O)(=O)c2nc(-c3ccccc3)oc2S(C)=O)cc1 (stereo not drawn)
NO

// next record `Cn1cc(C2=C(c3cn(C)c4ccc(Cl)cc34)C(=O)NC2=O)c2ccccc21`
NO

// next record `Cc1nc(Nc2cccnc2)sc1C(=O)/C=C/c1ccc(Cl)cc1`
NO

// next record `O=C([O][Sn]([O]C(=O)c1ccccn1)([c]1ccccc1)[c]1ccccc1)c1ccccn1`
NO

// next record `COc1cnc2c(c1)C(=O)c1c-2n(CCCNCCO)c(=O)c2ccncc12`
NO

// next record O=c1/c(=C\c2ccc(F)cc2)sc2n1C(c1ccc(F)cc1)C1=C(N=2)c2ccc3ccccc3c2OCC1 (stereo not drawn)
NO

// next record O=P1(S)OC[C@H]2O[C@@H]3[C@H](F)[C@@H]2OP(O)(=S)OC[C@H]2O[C@H]([C@H](F)[C@@H]2O1)n1cnc2c(ncnc21)NC/C=C/CNc1ncnc2c1ncn23 (stereo partly drawn)
NO

// next record `c1ccc(-c2nc(N3CCOCC3)c3c4c(sc3n2)CCCCCC4)nc1`
NO

// next record `COc1ccc(C(=O)NNc2nc(Cl)nc(N3CCN(C(c4ccccc4)c4ccccc4)CC3)n2)cc1`
NO

// next record `CC(=O)[O-].[Mn+3].[O-]c1ccccc1C=NCCNCCN=Cc1ccccc1[O-]`
NO

// next record `Cc1nc2c(n1C)C(=O)c1ccccc1C2=O`
NO

// next record `Cn1cc(-c2ccc3nnc(Sc4ccc5ncccc5c4)n3n2)cn1`
NO

// next record `O=C(Oc1ccc(CO[N+](=O)[O-])cc1)c1ccccc1`
YES

// next record `S=c1nc(N/N=C/c2ccco2)c2cn[nH]c2[nH]1`
NO

// next record `COc1cc(NC(=O)CCSc2nc3ccc(C)cc3c(=O)n2Cc2ccccc2)cc(OC)c1OC`
NO
